# System: HBV viral production from HepAD38 cells
# protocol-summary: Activity of test compounds on viral production from HepAD38 cells (viral load by qPCR of HBV core sequence in supernatant)
# Type: cell-based
# condition-label: Hepatitis B virus, 120 h, 5 days incubation, HBV DNA in supernatant by qPCR, top concentration 10 μM, read-out: Viral Load EC50 Activity range
Listed here are compounds together with their documented EC50.
measurement-type: EC50

compound: CN1C(C(=O)Nc2ccc(F)c(Cl)c2)CC(c2cccc(Cl)c2)NS1(=O)=O (racemic) [HBV-CSU-261]
val: < 1000 nM

compound: Cc1cnc([C@H]2C[C@@H](C(=O)Nc3ccc(F)c(Cl)c3)N(C)S(=O)(=O)N2)s1
val: < 1000 nM

compound: COCCN1[C@@H](C(=O)Nc2ccc(F)c(Br)c2)C[C@@H](c2nccs2)NS1(=O)=O [HBV-CSU-059-ISO-I]
val: > 5000 nM

compound: CN1[C@H](C(=O)Nc2ccc(F)c(Cl)c2)C[C@H](c2ncc(-c3cncs3)s2)NS1(=O)=O (relative stereo) [HBV-CSU-278-ISO-I]
val: < 1000 nM

compound: [2H]C1[C@]([2H])(C(=O)Nc2ccc(F)c(Cl)c2)N(C)S(=O)(=O)N[C@]1([2H])c1ccc(Br)s1 (stereo in doubt) [HBV-CSU-371-ISO-II]
val: 1000 to 5000 nM

compound: CN1C(C(=O)Nc2ccc(F)c(Cl)c2)CC(c2ccc3c(c2)ncn3C)NS1(=O)=O (racemic) [HBV-CSU-360]
val: < 1000 nM

compound: CN1[C@H](C(=O)Nc2ccc(F)c(Cl)c2)C[C@H](c2ncc(-c3c[nH]cn3)s2)NS1(=O)=O [HBV-CSU-333-ISO-I]
val: < 1000 nM

* * *

# Tested on: HBV viral production from HepAD38 cells
# protocol-summary: Activity of test compounds on viral production from HepAD38 cells (viral load by qPCR of HBV core sequence in supernatant)
# Assay type: cell-based
# condition-label: Hepatitis B virus, 120 h, 5 days incubation, HBV DNA in supernatant by qPCR, top concentration 10 μM, read-out: Viral Load EC50 Activity range
# EC50 annotations

compound: CN1C(C(=O)Nc2ccc(F)c(Cl)c2)CC(c2ccc(-c3ccnn3C)s2)NS1(=O)=O (racemic)
EC50: < 1 µM

compound: CN(C)CCCOc1ccc([C@H]2C[C@@H](C(=O)Nc3ccc(F)c(Cl)c3)N(C)S(=O)(=O)N2)cc1
EC50: < 1 µM

compound: CN1C(C(=O)Nc2ccccc2)CC(c2cccs2)NS1(=O)=O (stereo not shown)
EC50: < 1 µM

compound: CN1[C@@H](C(=O)Nc2ccc(F)c(Cl)c2)C[C@@H](c2ncc(-c3cccnc3)s2)NS1(=O)=O
EC50: < 1 µM

compound: CN1[C@H](C(=O)Nc2ccc(F)c(Cl)c2)C[C@H](c2ccc(-c3cnn(C)c3)cc2)NS1(=O)=O
EC50: < 1 µM

compound: [2H]C1[C@]([2H])(C(=O)Nc2ccc(F)c(Cl)c2)N(C)S(=O)(=O)N[C@]1([2H])c1ccc(-c2cn(C([2H])([2H])[2H])cn2)s1 (stereo in doubt)
EC50: 1 to 5 µM

compound: CN1[C@@H](C(=O)Nc2ccc(F)c(Cl)c2)C[C@@H](c2cccc(-c3cnn(C)c3)c2)NS1(=O)=O
EC50: < 1 µM
